- assayTarget: LSD1_(172-833), lysine-specific demethylase 1 (human, UniProt O60341-1 172-833)
- experimentSummary: SPR; LSD1 immobilised by amine coupling on CM5 (12 000-15 000 RU), peptides injected; TBS-T (25 mM Tris, 150 mM HCl as printed, 0.05% Tween-20, 1 mM DTT, pH 8.0), 15 °C; 1:1 Langmuir model or steady state; highest tested concentration 200 μM
- measurementConditions: both partners purified
pKd: −log10 of the molar value. Square brackets hold non-standard residues; d marks the D form. Ends that are not written are not given here. hPhe = N[C@@H](CCc1ccccc1)C(=O)O; Aoc(2) = CCCCCC[C@H](N)C(=O)O
Each entry below carries its recorded pKd.

ART[hPhe]QTARKST-NH2 [H3_(1-11) with L-homophenylalanine at position 4 (peptide 17)] ... < 3.70

Please find the next binder below.
Task: Report measured pKd; entry is ART[Aoc(2)]QTARKST-NH2 [H3_(1-11) with 2-S-amino octanoic acid at position 4 (peptide 16)]
Result: < 3.70

// data source = paper PMC7057333
